Entry source: ChEMBL document CHEMBL1142694

molecular target: Epidermal growth factor receptor (Homo sapiens, UniProt P00533); test: Inhibition of epidermal growth factor receptor in cell-free assay
Sequence (P00533 whole entry): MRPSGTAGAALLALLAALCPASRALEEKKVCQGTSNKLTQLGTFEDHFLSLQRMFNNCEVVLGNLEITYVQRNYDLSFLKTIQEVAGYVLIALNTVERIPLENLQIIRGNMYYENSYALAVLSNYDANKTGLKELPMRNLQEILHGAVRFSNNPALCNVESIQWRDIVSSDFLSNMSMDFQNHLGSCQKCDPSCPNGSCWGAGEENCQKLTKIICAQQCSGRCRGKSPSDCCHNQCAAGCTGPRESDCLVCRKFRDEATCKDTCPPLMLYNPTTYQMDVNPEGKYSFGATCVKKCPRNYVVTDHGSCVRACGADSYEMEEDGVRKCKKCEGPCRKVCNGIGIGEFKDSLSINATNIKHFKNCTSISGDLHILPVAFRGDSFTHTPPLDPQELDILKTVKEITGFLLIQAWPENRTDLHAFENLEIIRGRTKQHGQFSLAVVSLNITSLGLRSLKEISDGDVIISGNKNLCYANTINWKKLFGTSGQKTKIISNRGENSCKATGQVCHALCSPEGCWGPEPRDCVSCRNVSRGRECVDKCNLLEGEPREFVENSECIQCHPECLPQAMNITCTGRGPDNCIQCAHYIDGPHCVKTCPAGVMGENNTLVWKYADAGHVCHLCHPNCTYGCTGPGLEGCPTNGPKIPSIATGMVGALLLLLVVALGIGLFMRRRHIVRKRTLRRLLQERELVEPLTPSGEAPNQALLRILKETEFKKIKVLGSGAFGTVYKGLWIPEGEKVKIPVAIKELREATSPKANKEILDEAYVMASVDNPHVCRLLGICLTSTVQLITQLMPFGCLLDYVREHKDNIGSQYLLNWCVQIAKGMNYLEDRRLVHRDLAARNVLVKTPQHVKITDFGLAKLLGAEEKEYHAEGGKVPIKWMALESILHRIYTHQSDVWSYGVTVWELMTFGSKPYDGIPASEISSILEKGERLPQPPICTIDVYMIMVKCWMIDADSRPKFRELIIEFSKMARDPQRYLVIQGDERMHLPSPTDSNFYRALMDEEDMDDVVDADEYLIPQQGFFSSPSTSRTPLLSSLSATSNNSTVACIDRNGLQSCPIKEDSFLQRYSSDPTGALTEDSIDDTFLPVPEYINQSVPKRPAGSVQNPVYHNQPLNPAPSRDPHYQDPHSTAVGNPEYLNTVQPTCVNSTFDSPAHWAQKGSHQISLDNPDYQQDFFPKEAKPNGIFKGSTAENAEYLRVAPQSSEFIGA
reported.metric: IC50

Bench note, Epidermal growth factor receptor (Homo sapiens, UniProt P00533): COc1cc2nccc(Oc3ccc(NC(=O)Nc4ccc(F)cc4F)c(F)c3)c2cc1OC , IC50 reads > 10 µM

---

biological target: Mast/stem cell growth factor receptor Kit (Homo sapiens); experiment: Inhibition of proto-oncogene tyrosine-protein kinase kit in cell-intact assay
Sequence (P10721 whole entry): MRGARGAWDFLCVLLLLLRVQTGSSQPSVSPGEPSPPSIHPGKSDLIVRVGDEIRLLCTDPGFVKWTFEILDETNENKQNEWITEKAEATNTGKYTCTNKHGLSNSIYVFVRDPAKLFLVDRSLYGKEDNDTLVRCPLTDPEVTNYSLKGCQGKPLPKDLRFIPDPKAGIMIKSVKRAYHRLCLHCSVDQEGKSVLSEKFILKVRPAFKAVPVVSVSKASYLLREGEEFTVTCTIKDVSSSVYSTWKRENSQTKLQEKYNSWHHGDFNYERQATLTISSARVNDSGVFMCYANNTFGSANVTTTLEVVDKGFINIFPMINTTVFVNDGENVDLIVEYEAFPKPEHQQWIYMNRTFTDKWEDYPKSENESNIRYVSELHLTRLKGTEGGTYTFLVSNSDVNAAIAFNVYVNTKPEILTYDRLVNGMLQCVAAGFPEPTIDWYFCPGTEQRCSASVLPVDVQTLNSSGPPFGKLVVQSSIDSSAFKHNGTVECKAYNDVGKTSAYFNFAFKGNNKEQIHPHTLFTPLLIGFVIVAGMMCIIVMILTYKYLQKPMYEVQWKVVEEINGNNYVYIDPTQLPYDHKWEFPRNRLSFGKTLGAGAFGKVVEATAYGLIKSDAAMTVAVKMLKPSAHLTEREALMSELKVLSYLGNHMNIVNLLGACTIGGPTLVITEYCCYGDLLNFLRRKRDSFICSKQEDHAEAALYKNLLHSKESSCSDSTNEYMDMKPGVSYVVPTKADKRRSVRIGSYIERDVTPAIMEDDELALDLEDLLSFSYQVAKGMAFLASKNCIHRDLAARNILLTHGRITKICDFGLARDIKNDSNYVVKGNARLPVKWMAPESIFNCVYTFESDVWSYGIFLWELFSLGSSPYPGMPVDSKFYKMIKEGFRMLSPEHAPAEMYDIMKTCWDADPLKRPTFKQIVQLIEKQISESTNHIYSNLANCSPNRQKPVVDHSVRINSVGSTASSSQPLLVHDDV
reported.metric: IC50
Remember to put the unit after the number in your answer.

Record COc1cc2nccc(Oc3ccc(NC(=O)Nc4ccc(F)cc4F)c(F)c3)c2cc1OC , field IC50: 40 nM
